Listed next: entries and their corresponding MIC.
# Tested on: Klebsiella pneumoniae
# assay-procedure: In vitro antibacterial activity against Klebsiella pneumoniae […]
# Assay type: functional

Study these solved cases before continuing.
{"columns": ["compound", "measured-result"],
 "data": [
  ["CN(CC(=O)O)NC(=O)C[C@H](N)CC(O)CN1CC[C@@H](N)C1 (stereo partly drawn)", "> 256 µg/mL"],
  ["CC(C)C[C@H](N)C(=O)NC[C@H](O)C[C@@H](N)CC(=O)NN(C)CC(=O)O", "32 µg/mL"],
  ["CC(ONC(=O)C[C@H](N)C[C@@H](O)CN)C(=O)O (stereo partly drawn)", "> 256 µg/mL"],
  ["CCCNC[C@H](O)C[C@@H](N)CC(=O)NN(C)CC(=O)O", "> 256 µg/mL"],
  ["CNC[C@H](O)C[C@@H](N)CC(=O)NN(C)CC(=O)O", "4 µg/mL"]
]}

Qu. Answer with reported MIC of CN(CP(C)(=O)O)NC(=O)C[C@H](N)C[C@@H](O)CN
Ans. > 256 µg/mL

Qu. Answer with reported MIC of CN(CC(=O)O)NC(=O)C[C@H](N)C[C@@H](O)CN=C(N)N
Ans. > 256 µg/mL

* * *

# Tested on: Escherichia coli
# assay-procedure: In vitro antibacterial activity against Escherichia coli ATCC 25922
# Type: functional
Listed next: entries and their corresponding MIC.

Study these solved cases before continuing.
{"columns": ["compound", "tgt", "MIC"],
 "data": [
  ["CN(CC(=O)O)NC(=O)C[C@H](N)CC(O)CN1CCNCC1 (some centres undefined)", "Escherichia coli", "> 256 µg/mL"],
  ["CNC[C@H](O)C[C@@H](N)CC(=O)NN(C)CC(=O)O", "Escherichia coli", "16 µg/mL"],
  ["CN(CC(=O)O)NC(=O)C[C@H](N)C[C@@H](O)CNC(N)=O", "Escherichia coli", "> 256 µg/mL"],
  ["CCNC[C@H](O)C[C@@H](N)CC(=O)NN(C)CC(=O)O", "Escherichia coli", "16 µg/mL"]
]}

With those in mind, consider the next compound.
Qu. Answer with reported MIC of CN(CC(=O)O)NC(=O)C[C@H](N)C[C@@H](O)CNCc1ccccc1
Ans. 64 µg/mL

* * *

# System: Klebsiella pneumoniae
# assay-procedure: In vitro antibacterial activity against Klebsiella pneumoniae […]
# Format: functional
readout-label: MIC

{"columns": ["smiles-input", "measured-result"],
 "data": [
  ["CN(CC(=O)O)NC(=O)C[C@H](N)C[C@@H](O)CCN", "> 256 µg/mL"],
  ["CN(CC(=O)O)NC(=O)C[C@H](N)C[C@@H](O)CN", "2 µg/mL"],
  ["CN(Cc1nn[nH]n1)NC(=O)C[C@H](N)C[C@@H](O)CN", "> 256 µg/mL"],
  ["CN(CC(=O)O)NC(=O)C[C@H](N)C[C@@H](O)CNCc1ccccc1", "32 µg/mL"],
  ["CN(CC(=O)O)NC(=O)C[C@H](N)C[C@@H](O)CNC(N)=O", "> 256 µg/mL"]
]}

With those in mind, consider the next compound.
Qu. # lookup: Klebsiella pneumoniae MIC, key = NC[C@H](O)C[C@@H](N)CC(=O)NN1CCC[C@H]1C(=O)O
Ans. > 256 µg/mL

Value source: ChEMBL document CHEMBL1136118
